system.tested: PAI-1 (Homo sapiens, UniProt P05121)
Sequence (P05121 24-402): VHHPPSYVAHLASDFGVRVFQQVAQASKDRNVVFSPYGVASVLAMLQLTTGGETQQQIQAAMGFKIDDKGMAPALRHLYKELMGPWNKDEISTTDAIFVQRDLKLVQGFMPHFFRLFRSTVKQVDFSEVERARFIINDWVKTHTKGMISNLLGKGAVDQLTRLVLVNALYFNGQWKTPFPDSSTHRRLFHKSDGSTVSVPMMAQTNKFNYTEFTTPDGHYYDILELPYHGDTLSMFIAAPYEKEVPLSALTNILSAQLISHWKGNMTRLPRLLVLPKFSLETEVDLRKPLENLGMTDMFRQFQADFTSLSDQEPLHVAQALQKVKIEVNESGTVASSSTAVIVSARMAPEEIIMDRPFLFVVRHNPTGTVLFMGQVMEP
protocol.description: biochemical
Format: biochemical
condition.details: PAI chromogenic substrate assay
Structures can show the parent of a compound that is named as a salt.
Kindly apply the following: satisfied if IC50 is less than 8 µM, not satisfied in every other case.

> print(dat)
                                    molecule                         system.tested  category.label
 1  COc1cccc(/C=c2\[nH]c(=O)/c(=C/c3ccc(SCCN(C)C)s3)[nH]c2=O)c1 [Compound 5314.HCl]  PAI-1 (Homo sapiens, UniProt P05121)   not satisfied
 2  CN(C)CCSc1ccc(/C=c2\[nH]c(=O)/c(=C/c3ccc(Br)cc3)[nH]c2=O)s1 [Compound 5489]  PAI-1 (Homo sapiens, UniProt P05121)   not satisfied
 3  CN(C)CCSc1ccc(/C=c2\[nH]c(=O)/c(=C/c3ccnc4ccccc34)[nH]c2=O)s1 [Compound 5307]  PAI-1 (Homo sapiens, UniProt P05121)   not satisfied
 4  CN(C)CCSc1ccc(/C=c2\[nH]c(=O)/c(=C/c3ccc4c(c3)OCO4)[nH]c2=O)cc1 [Compound 5491.HCl]  PAI-1 (Homo sapiens, UniProt P05121)   not satisfied
 5  CN(C)CCSc1ccc(/C=c2\[nH]c(=O)/c(=C/c3ccc4ccccc4c3)[nH]c2=O)cc1  PAI-1 (Homo sapiens, UniProt P05121)       satisfied
 6  CN(C)CCSc1ccc(/C=c2\[nH]c(=O)/c(=C/c3ccc(N(C)C)cc3)[nH]c2=O)cc1 [Compound 5424]  PAI-1 (Homo sapiens, UniProt P05121)   not satisfied
 7  COc1cc(/C=c2\[nH]c(=O)/c(=C/c3ccc(SCCN(C)C)cc3)[nH]c2=O)ccc1OCc1ccc([N+](=O)[O-])cc1 [Compound 5490]  PAI-1 (Homo sapiens, UniProt P05121)   not satisfied
 8  CN(C)CCSc1ccc(/C=c2\[nH]c(=O)/c(=C/c3ccc4c(c3)CCO4)[nH]c2=O)s1 [Compound 5311.HCl]  PAI-1 (Homo sapiens, UniProt P05121)   not satisfied
 9  CN(C)CCSc1ccc(/C=c2\[nH]c(=O)/c(=C/c3ccc(C(F)(F)F)cc3)[nH]c2=O)cc1 [Compound 5294]  PAI-1 (Homo sapiens, UniProt P05121)       satisfied
10  CN(C)CCSc1ccc(/C=c2\[nH]c(=O)/c(=C/c3cccc(OCc4ccccc4)c3)[nH]c2=O)s1 [Compound 5487]  PAI-1 (Homo sapiens, UniProt P05121)   not satisfied
11  CN(C)CCSc1ccc(/C=c2\[nH]c(=O)/c(=C/c3ccccc3)[nH]c2=O)s1 [Compound 5131.HCl]  PAI-1 (Homo sapiens, UniProt P05121)       satisfied
12  Cc1ccc(/C=c2\[nH]c(=O)/c(=C/c3ccc(SCCN(C)C)s3)[nH]c2=O)cc1 [Compound 5460]  PAI-1 (Homo sapiens, UniProt P05121)   not satisfied
13  CN(C)CCSc1ccc(/C=c2\[nH]c(=O)/c(=C/c3c4ccccc4cc4ccccc34)[nH]c2=O)s1 [Compound 5498]  PAI-1 (Homo sapiens, UniProt P05121)   not satisfied
14  CN(C)CCSc1ccc(/C=c2\[nH]c(=O)/c(=C/c3ccc(Cl)c(Cl)c3)[nH]c2=O)cc1 [Compound 5465.HCl]  PAI-1 (Homo sapiens, UniProt P05121)       satisfied

The measurements presented in this section are drawn from patent US5750530A.
